assay: Cell viability assay (EZ-Cytox), cytotoxicity; type: cell-based; settings: human, HepAD38 cells, @100 μM, read-out: Cytotoxicity % Livability (@100 μM)
value.type: viability at 65 h, 100 µM (%)
Numbers only here, please. The scale is %.

>>> df
                                   molecule                 value_type  observed_measurement
0  COc1ccc(N(Cc2n[nH]c3c2COC3)C(=O)Nc2ccc(F)c(Cl)c2)cn1  viability at 65 h, 100 µM                  94.5
1  COc1ncc(N(Cc2cc(C(F)(F)F)[nH]n2)C(=O)Nc2ccc(C#N)c(C(F)F)c2)cn1  viability at 65 h, 100 µM                  82.7
2  COc1ccc(N(Cc2nn(C)c3c2CCCC3)C(=O)Nc2ccc(F)c(Cl)c2)cc1  viability at 65 h, 100 µM                   100

Consider the record given below.
Would you mind telling me what viability at 65 h, 100 µM value was observed for COc1ccc(N(Cc2n[nH]c3c2CC(C(F)(F)F)CC3)C(=O)Nc2ccc(F)c(Cl)c2)cn1 (stereo not shown) ? 6.5

----------
Quick reference: CC50 at 65 h of the listed items.
Test: Cell viability assay (EZ-Cytox), cytotoxicity
Type: cell-based
Settings: human, HepAD38 cells
Method: HepAD38 cells were cultured for 2 days in Dulbecco's Modified Eagle's medium (Welgene, LM001-05) supplemented with 10% FBS without tetracycline. […] After 65 hours of treatment, viability was measured using EZ-Cytox cell viability assay kit (Daeil Lab Service) according to the manufacturer's instructions. The absorbance was measured at 450 nm using a spectrophotometer (Spark, Tecan).

Past entries and their recorded results:
In [3]: df
Out[3]:
                                   compound    value_type  observed_measurement
0  COc1ccc(N(Cc2cc(C(F)F)[nH]n2)C(=O)Nc2ccc(F)c(Cl)c2)cn1 [Example 72]  CC50 at 65 h             > 66.6 µM
1  COc1ncc(N(Cc2n[nH]c(C(F)(F)F)c2Br)C(=O)Nc2ccc(F)c(C(F)F)c2)cn1 [Example 194]  CC50 at 65 h              > 100 µM
2  COc1ncc(N(Cc2cc(C(F)(F)F)[nH]n2)C(=O)NC23CC(Cl)(C2)C3)cn1 [Example 6]  CC50 at 65 h              > 100 µM

Would you mind telling me what CC50 at 65 h value was observed for C=C(C)c1c(CN(C(=O)Nc2ccc(F)c(Cl)c2)c2cnc(OC)nc2)n[nH]c1C(F)F [Example 93] ? > 100 µM

----------
system: intracellular HBV DNA; experiment: Real-time PCR for intracellular HBV DNA in HepAD38 cells; assay type: cell-based; conditions: Hepatitis B virus, HePAD38, 65 h, 65 hours treatment
Quick reference: IC50 of the listed items.
Numbers only here, please. The scale is nM.

>>> print(df.to_string())
                                   molecule  unit_abbreviation  observed_measurement
0  O=C(Nc1ccc(F)c(Cl)c1)N(Cc1n[nH]c2c1CCCC2)c1cc[nH]c(=O)c1                 nM                   310
1  COc1ncc(N(Cc2cc(C(F)(F)F)[nH]n2)C(=O)Nc2ccc(C(F)F)c(F)c2)cn1                 nM                   180
2  COc1ncc(N(Cc2cc(C(F)(F)F)[nH]n2)C(=O)Nc2ccc(F)c(Cl)c2)cn1                 nM                    19
3  N#Cc1ccc(N(Cc2n[nH]c3c2COCC3)C(=O)Nc2ccc(F)c(Cl)c2)cn1                 nM                   230
4  N#Cc1ccc(N(Cc2n[nH]c3c2CCCO3)C(=O)Nc2ccc(F)c(Cl)c2)cn1                 nM                    47
5  COc1ccc(N(Cc2n[nH]c3c2CC(C)(C)CC3)C(=O)Nc2ccc(F)c(Cl)c2)cn1                 nM                   990

Would you mind telling me what IC50 value was observed for COc1ccc(N(Cc2n[nH]c3c2CCCC3)C(=O)Nc2ccc(F)c(Cl)c2)cn1 ? 37

Would you mind telling me what IC50 value was observed for COc1ccc(N(Cc2n[nH]c3c2C2CCC3C2)C(=O)Nc2ccc(F)c(Cl)c2)cn1 (stereo not shown) ? 35

Would you mind telling me what IC50 value was observed for COc1ccc(N(Cc2cc(OC)[nH]n2)C(=O)Nc2ccc(F)c(Cl)c2)cn1 ? 180

Would you mind telling me what IC50 value was observed for COc1ccc(N(Cc2cc(C(F)F)[nH]n2)C(=O)Nc2ccc(F)c(C(F)F)c2)cn1 ? 24

Would you mind telling me what IC50 value was observed for COc1ncc(N(Cc2cc(C(F)F)[nH]n2)C(=O)Nc2ccc(F)c(C(F)F)n2)cn1 ? 160
